Measured IC50 accompanies every entry in the list below.
TARGET_SYSTEM: KRAS G12D (GDP-loaded, hexahistidine tagged, truncated 1-169) (Homo sapiens, UniProt P01116, G12D)
Construct: truncated (1-169) KRAS proteins; hexahistidine
Sequence (P01116 1-169 isoform P01116-2 G12D): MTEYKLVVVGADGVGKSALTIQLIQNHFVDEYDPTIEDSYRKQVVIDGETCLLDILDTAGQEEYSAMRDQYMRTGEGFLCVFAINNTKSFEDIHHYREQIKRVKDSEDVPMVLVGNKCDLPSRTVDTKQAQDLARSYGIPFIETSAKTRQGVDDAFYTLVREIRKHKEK
PROCEDURE_SUMMARY: SOS-mediated nucleotide exchange assay, KRAS G12D
REPORTED_CONDITIONS: SOS(cat)-mediated Bodipy-GDP exchange

> print(dat)
                                   molecule  meas.value
1  C[C@@H]1CN(c2nc(N3CC(N(C)C)C3)nc3c(F)c(-c4cc(O)cc5ccccc45)c(Cl)cc23)[C@@H](C)CN1 (atropisomer, axis not shown)     > 15 µM
2  CN(C)CCCOc1nc(N2CCOCC2)c2cc(Cl)c(-c3cc(O)cc4ccccc34)c(F)c2n1 (atropisomer, axis not shown)     > 15 µM
3  CN(C)CCCOc1nc(N2CCNCC2)c2cc(Cl)c(-c3c(O)cccc3F)c(F)c2n1     > 15 µM
4  CC(=O)N1CCN(c2nc(OCCCN(C)C)nc3c(F)c(-c4cc(O)cc5ccccc45)c(Cl)cc23)CC1 (single isomer, unassigned)     > 15 µM
5  CN(C(=O)CCl)C1CN(c2nc(N3CCOCC3)c3cc(Cl)c(-c4cc(O)cc5ccccc45)c(F)c3n2)C1     > 15 µM
6  CN(C)CCCOc1nc(N2CCOCC2)c2cc(C(F)(F)F)c(-c3cc(O)cc4ccccc34)c(F)c2n1 (atropisomer, axis not shown)     > 15 µM
7  CN(C)CCCOc1nc(N2CCNCC2)c2cc(Cl)c(-c3cc(O)cc4ccccc34)c(F)c2n1 (single isomer, unassigned)     < 15 µM
8  CN(C)CCCOc1nc(N2CCN[C@@H](CO)C2)c2cc(Cl)c(-c3cc(O)cc4ccccc34)c(F)c2n1     < 15 µM

Which IC50 is reported for this molecule? CN(C)CC(O)COc1nc(N2CCNCC2)c2cc(Cl)c(-c3cc(O)cc4ccccc34)c(F)c2n1 (centres unmarked) > 15 µM

Which IC50 is reported for this molecule? CC(=O)NCCCCCN(C)CCCOc1nc(N2CCNCC2)c2cc(Cl)c(-c3cc(O)cc4ccccc34)c(F)c2n1 < 15 µM

Which IC50 is reported for this molecule? CC(=O)N1CCN(c2nc(OCCCN(C)C)nc3c(F)c(-c4cc(O)cc5ccccc45)c(C(F)(F)F)cc23)CC1 (atropisomer, axis not shown) > 15 µM

Which IC50 is reported for this molecule? Cc1cc(N)c2[nH]ncc2c1-c1c(Cl)cc2c(N3CCNCC3)nc(OCCCN(C)C)nc2c1F > 15 µM

Which IC50 is reported for this molecule? CN(C)C1CN(c2nc(N3CCNCC3)c3cc(Cl)c(-c4cc(O)cc5ccccc45)c(F)c3n2)C1 < 15 µM

Which IC50 is reported for this molecule? CN(C)CCCOc1nc(N2CCNC(CC#N)C2)c2cc(Cl)c(-c3cc(O)cc4ccccc34)c(F)c2n1 (centres unmarked) > 15 µM

Which IC50 is reported for this molecule? CN(C)CCCOc1nc(N2CCNCC2)c2cc(C(F)(F)F)c(-c3cc(O)cc4ccccc34)c(F)c2n1 (atropisomer, axis not shown) < 15 µM

----------
TARGET_SYSTEM: KRAS WT (GDP-loaded, hexahistidine tagged, truncated 1-169) (Homo sapiens, UniProt P01116)
Construct: truncated (1-169) KRAS proteins; hexahistidine
Sequence (P01116 1-169 isoform P01116-2): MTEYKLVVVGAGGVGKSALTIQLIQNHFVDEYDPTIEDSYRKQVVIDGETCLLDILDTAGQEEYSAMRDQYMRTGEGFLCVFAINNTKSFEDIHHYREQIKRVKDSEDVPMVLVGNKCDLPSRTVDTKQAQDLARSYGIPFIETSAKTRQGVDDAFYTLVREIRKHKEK
PROCEDURE_SUMMARY: SOS-mediated nucleotide exchange assay, KRAS WT
REPORTED_CONDITIONS: SOS(cat)-mediated Bodipy-GDP exchange
MEASURED_ATTRIBUTE: IC50

Solved cases below.
MOLECULE	IC50
CN(C)CC(O)COc1nc(N2CCNCC2)c2cc(Cl)c(-c3cc(O)cc4ccccc34)c(F)c2n1 (centres unmarked) [Compound 120]	> 15 µM
CN(C)CCCOc1nc(N2CCNCC2)c2cc(Cl)c(-c3c(O)cccc3F)c(F)c2n1 [Compound 112]	> 15 µM
O=S(=O)(F)CCOc1nc(N2CCOCC2)c2cc(Cl)c(-c3cc(O)cc4ccccc34)c(F)c2n1 [Compound 176]	> 15 µM
CN(C)CCCOc1nc(N2CCN[C@@H](CO)C2)c2cc(Cl)c(-c3cc(O)cc4ccccc34)c(F)c2n1 [Compound 155]	> 15 µM
CN(C)C1CN(c2nc(N3CCNCC3)c3cc(Cl)c(-c4cc(O)cc5ccccc45)c(F)c3n2)C1 (atropisomer, axis not shown) [Compound 339]	> 15 µM
CN(C(=O)CCl)C1CN(c2nc(N3CCNCC3)c3cc(Cl)c(-c4cc(O)cc5ccccc45)c(F)c3n2)C1 [Compound 351]	> 15 µM
Cc1ccc2[nH]ncc2c1-c1c(Cl)cc2c(N3CCNCC3)nc(OCCCN(C)C)nc2c1F [Compound 108]	> 15 µM
CC(=O)NCCCCCN(C)CCCOc1nc(N2CCOCC2)c2cc(Cl)c(-c3cc(O)cc4ccccc34)c(F)c2n1 [Compound 171]	> 15 µM

Which IC50 is reported for this molecule? C[C@@H]1CN(c2nc(N3CC(N(C)C)C3)nc3c(F)c(-c4cc(O)cc5ccccc45)c(Cl)cc23)[C@@H](C)CN1 (atropisomer, axis not shown) [Compound 330] > 15 µM

Which IC50 is reported for this molecule? CN(CCOc1nc(N2CCOCC2)c2cc(Cl)c(-c3cc(O)cc4ccccc34)c(F)c2n1)C(=O)CCl [Compound 175] > 15 µM

Which IC50 is reported for this molecule? CN(C)CCCOc1nc(N2CCC(C#N)CC2)c2cc(Cl)c(-c3cc(O)cc4ccccc34)c(F)c2n1 [Compound 165] > 15 µM

Which IC50 is reported for this molecule? CN(C)CCCOc1nc(N2CCN[C@@H](C#N)C2)c2cc(Cl)c(-c3cc(O)cc4ccccc34)c(F)c2n1 [Compound 166] > 15 µM

Which IC50 is reported for this molecule? CN(C)CCCOc1nc(N2CCNCC2)c2cc(Cl)c(-c3cc(O)cc4ccccc34)c(F)c2n1 (single isomer, unassigned) [Compound 22] > 15 µM

Which IC50 is reported for this molecule? CC(=O)N1CCN(c2nc(OCCCN(C)C)nc3c(F)c(-c4cc(O)cc5ccccc45)c(C(F)(F)F)cc23)CC1 (atropisomer, axis not shown) [Compound 158] < 15 µM

Which IC50 is reported for this molecule? C[C@@H]1CN(c2nc(OCCCN(C)C)nc3c(F)c(-c4cc(O)cc5ccccc45)c(Cl)cc23)[C@@H](C)CN1 (atropisomer, axis not shown) [Compound 97] > 15 µM

Which IC50 is reported for this molecule? CN(C)CCCOc1nc(N2CCNCC2)c2cc(C(F)(F)F)c(-c3cc(O)cc4ccccc34)c(F)c2n1 [Compound 147] > 15 µM

Which IC50 is reported for this molecule? CN(C(=O)CN)C1CN(c2nc(N3CCNCC3)c3cc(Cl)c(-c4cc(O)cc5ccccc45)c(F)c3n2)C1 [Compound 344] > 15 µM

Which IC50 is reported for this molecule? CN(C)CCCOc1nc(N2CCNC(CC#N)C2)c2cc(Cl)c(-c3cc(O)cc4ccccc34)c(F)c2n1 (centres unmarked) [Compound 170] < 15 µM

Which IC50 is reported for this molecule? Cc1cc(N)c2[nH]ncc2c1-c1c(Cl)cc2c(N3CCNCC3)nc(OCCCN(C)C)nc2c1F [Compound 173] > 15 µM

Which IC50 is reported for this molecule? CN(C)CCCOc1nc(N2CCOCC2)c2cc(C(F)(F)F)c(-c3cc(O)cc4ccccc34)c(F)c2n1 (atropisomer, axis not shown) [Compound 162] < 15 µM

Which IC50 is reported for this molecule? CC(=O)NCCCCCN(C)CCCOc1nc(N2CCNCC2)c2cc(Cl)c(-c3cc(O)cc4ccccc34)c(F)c2n1 [Compound 172] > 15 µM

Which IC50 is reported for this molecule? CC(=O)N1CCN(c2nc(OCCCN(C)C)nc3c(F)c(-c4cc(O)cc5ccccc45)c(Cl)cc23)CC1 (single isomer, unassigned) [Compound 18] < 15 µM

Which IC50 is reported for this molecule? CN(C)CCCOc1nc(N2CCN[C@@H](C(N)=O)C2)c2cc(Cl)c(-c3cc(O)cc4ccccc34)c(F)c2n1 [Compound 164] > 15 µM

Which IC50 is reported for this molecule? CN(C)CCCOc1nc(N2CCOCC2)c2cc(Cl)c(-c3cc(O)cc4ccccc34)c(F)c2n1 (atropisomer, axis not shown) [Compound 151] < 15 µM

Which IC50 is reported for this molecule? CN(C(=O)CO)C1CN(c2nc(N3CCNCC3)c3cc(Cl)c(-c4cc(O)cc5ccccc45)c(F)c3n2)C1 [Compound 346] > 15 µM

Which IC50 is reported for this molecule? CN(C(=O)CCl)C1CN(c2nc(N3CCOCC3)c3cc(Cl)c(-c4cc(O)cc5ccccc45)c(F)c3n2)C1 [Compound 350] > 15 µM

Source: patent US10822312B2
